These entries and their values trace back to patent US20140309210A1.

TGT: purified ITK (Invitrogen PV3875) (Homo sapiens, UniProt Q08881)
Construct: purchased Invitrogen PV3875
Sequence (Q08881 1-620): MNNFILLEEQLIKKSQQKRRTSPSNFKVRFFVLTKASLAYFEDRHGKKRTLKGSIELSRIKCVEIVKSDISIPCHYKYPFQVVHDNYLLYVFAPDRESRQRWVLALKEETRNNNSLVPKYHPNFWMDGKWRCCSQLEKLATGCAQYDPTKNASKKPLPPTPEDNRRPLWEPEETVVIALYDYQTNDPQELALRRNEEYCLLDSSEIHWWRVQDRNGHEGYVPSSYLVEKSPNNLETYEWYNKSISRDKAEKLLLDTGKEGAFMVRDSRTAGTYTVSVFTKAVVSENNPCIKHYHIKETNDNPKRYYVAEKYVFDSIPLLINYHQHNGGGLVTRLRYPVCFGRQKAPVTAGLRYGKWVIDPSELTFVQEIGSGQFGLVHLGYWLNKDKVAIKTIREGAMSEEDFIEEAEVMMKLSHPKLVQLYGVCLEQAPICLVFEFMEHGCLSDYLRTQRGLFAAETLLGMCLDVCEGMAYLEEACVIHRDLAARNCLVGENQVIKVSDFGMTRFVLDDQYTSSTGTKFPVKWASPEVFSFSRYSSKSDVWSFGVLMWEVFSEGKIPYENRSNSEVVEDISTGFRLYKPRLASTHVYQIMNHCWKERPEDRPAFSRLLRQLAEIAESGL
ASSAY SUMMARY: ITK peptide phosphorylation assay (Caliper LabChip or LCMS)
Type: biochemical
EXPERIMENTAL PARAMETERS: Table 2, Examples 1-140, class symbols
pKi: −log10 of the molar value.
This section presents compounds with their documented pKi values.

The following compounds have reported results that may help.
COMPOUND: N#Cc1cccc(Cn2cc(NC(=O)c3n[nH]c4ccc(CCO)cc34)cn2)c1 [Example 82]
pKi: 7.00 to 9.00
--
COMPOUND: Cc1cccc(Cn2cc(NC(=O)c3n[nH]c4ccccc34)cn2)c1 [Example 55]
pKi: 7.00 to 9.00
--
COMPOUND: CC(C)(O)CNCc1cccc(Cn2cc(NC(=O)c3n[nH]c4ccccc34)cn2)c1 [Example 90]
pKi: 7.00 to 9.00
--
COMPOUND: O=C(Nc1cnn(Cc2cccc(CNCC3CC3)c2)c1)c1n[nH]c2ccccc12 [Example 95]
pKi: 7.00 to 9.00
--
COMPOUND: O=C(Nc1cnn(Cc2cccc(-c3ccncc3)c2)c1)c1n[nH]c2cc(-c3cn[nH]c3)ccc12 [Example 37]
pKi: 9.00 to 11.00

// recorded pKi for O=C(Nc1cnn(Cc2ccccc2C(F)(F)F)c1)c1n[nH]c2ccccc12 [Example 60] : < 7.00

pKi reported for this compound O=C(Nc1cnn(Cc2cc(F)ccc2F)c1)c1n[nH]c2ccccc12 [Example 69] : 7.00 to 9.00
